Source of measurements: patent US20200308301A1

biological target: NOV1401; test: cell-based or functional assay; also: test concentration or dose not given here
Sequence (VH, as listed by the source, chain 1 of 2): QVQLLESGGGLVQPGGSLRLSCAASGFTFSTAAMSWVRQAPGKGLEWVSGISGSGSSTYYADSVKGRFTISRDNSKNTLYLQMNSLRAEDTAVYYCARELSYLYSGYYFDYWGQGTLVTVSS
Sequence (VL, as listed by the source, chain 2 of 2): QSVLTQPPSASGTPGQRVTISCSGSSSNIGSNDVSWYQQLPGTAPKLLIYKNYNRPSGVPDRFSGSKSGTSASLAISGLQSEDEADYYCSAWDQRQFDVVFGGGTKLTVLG
test-readout: TGA percentage reversal, NOV1401/anti NOV1401 ratio 1/1 (n/n) (%)
Give the value, in units of %, as a plain number.

State its TGA percentage reversal, NOV1401/anti NOV1401 ratio 1/1 (n/n) for this binder: IDT8 (Fab, V domains shown, Fab; also called anti-NOV1401 Fab IDT8) VH: QVQLVESGGGLVKPGGSLRLSCAASGFTFSSNAMHWVRQAPGKGLEWVGRIKSKTSGGTTDYAAPVKGRFTISRDDSKNTLYLQMNSLKTEDTAVYYCARDHYYYPFAYWGQGTLVTVSS VL: DIQMTQSPSSLSASVGDRVTITCRASQSIRYNLAWYQQKPGKAPKLLIYAASSLQSGVPSRFSGSGSGTDFTLTISSLQPEDFATYYCHQYIAKPITFGQGTKVEIKR
41

Look up and report measured TGA percentage reversal, NOV1401/anti NOV1401 ratio 1/1 (n/n) for this entry: IDT10 (Fab, V domains shown, Fab; also called anti-NOV1401 Fab IDT10) VH: QVQLVQSGAEVKKPGASVKVSCKASGYTFTNYYVHWVRQAPGQGLEWMGWINPYSGNTNYAQKFQGRVTMTRDTSISTAYMELSRLRSEDTAVYYCARGASSIRMSYYLDVWGQGTLVTVSS VL: DIQMTQSPSSLSASVGDRVTITCRASQSISNYLNWYQQKPGKAPKLLIYAASNLQSGVPSRFSGSGSGTDFTLTISSLQPEDFATYYCFQYTHSPATFGQGTKVEIKR
37

Name the recorded TGA percentage reversal, NOV1401/anti NOV1401 ratio 1/1 (n/n) of the binder listed here: IDT9 (Fab, V domains shown, Fab; also called anti-NOV1401 Fab IDT9) VH: QVQLVQSGAEVKKPGASVKVSCKASGYTFTNYYVHWVRQAPGQGLEWMGWINPYNGNTNYAQKFQGRVTMTRDTSISTAYMELSRLRSEDTAVYYCARGASSIRMSYYLDVWGQGTLVTVSS VL: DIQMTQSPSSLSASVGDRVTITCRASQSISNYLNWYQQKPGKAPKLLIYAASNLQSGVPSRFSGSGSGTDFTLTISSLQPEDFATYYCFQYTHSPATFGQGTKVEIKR
41
